Structures can show the parent of a compound that is named as a salt.

COMPOUND: CC(C)Oc1ccc(N(C)CCC2(O)CCN(Cc3ccc4ccccc4c3)CC2)cc1
melting point: 76.2 to 76.8 °C

COMPOUND: CC(C)COc1ccc(N(C)CCC2(O)CCN(Cc3ccccc3)CC2)cc1
melting point: 50.6 to 52.5 °C

COMPOUND: CC(C)Oc1ccc(N(C)CCC2(O)CCN(Cc3ccc(Br)cc3F)CC2)cc1 [Example 93]
melting point: 99.8 to 100.9 °C

COMPOUND: CCCCOc1ccc(N(C)CCC2(O)CCN(Cc3ccc(C#N)cc3)CC2)cc1
melting point: 83.5 to 85.5 °C

COMPOUND: CC(C)Oc1ccc(N(C)CCC2(O)CCN(Cc3ccc(Br)cc3)CC2)cc1 (as salt: hydrochloride) [Example 220, dihydrochloride]
melting point: 224.4 to 226.2 °C

COMPOUND: CC(C)Oc1ccc(N(C)CCC2(O)CCN(Cc3ccc(F)cc3F)CC2)cc1
melting point: 77.6 to 77.9 °C

COMPOUND: CCCCOc1ccc(N(C)CCC2(O)CCN(Cc3cccc(F)c3)CC2)cc1
melting point: 46.7 to 47.2 °C

COMPOUND: CCOc1ccc(N(C)CCC2(O)CCN(C(c3ccccc3)c3ccccc3)CC2)cc1
melting point: 94.3 to 95.8 °C

COMPOUND: CC(C)Oc1ccc(N(C)CCC2(O)CCN(Cc3ccc(OC(F)(F)F)cc3)CC2)cc1 (as salt: hydrochloride) [Example 236, dihydrochloride]
melting point: 233.2 to 234.9 °C

COMPOUND: CC(C)Oc1ccc(NCCC2(O)CCN(Cc3ccc(C(F)(F)F)cc3)CC2)cc1
melting point: 152.3 to 153.1 °C

COMPOUND: CC(C)Oc1ccc(N(C)CCC2(O)CCN(Cc3cccs3)CC2)cc1 (as salt: hydrochloride) [Example 254, dihydrochloride]
melting point: 216.5 to 217.5 °C

COMPOUND: CC(C)Oc1ccc(N(C)CCC2(O)CCN(Cc3ccc(C#N)cc3)CC2)cc1 [Example 79]
melting point: 108.1 to 109.5 °C

COMPOUND: CCCCCOc1ccc(N(C)CCC2(O)CCN(Cc3ccccc3)CC2)cc1
melting point: 58.5 to 60.3 °C

COMPOUND: CCCCOc1ccc(N(C)CCC2(O)CCN(Cc3ccc(F)c(F)c3)CC2)cc1
melting point: 49.8 to 50.5 °C

COMPOUND: CCCCOc1ccc(N(C)CC(O)C2(O)CCN(CCc3ccc(F)cc3)CC2)cc1 (stereo not shown) (as salt: hydrochloride) [Example 196, dihydrochloride]
melting point: 191.2 to 198.7 °C

COMPOUND: CCCCOc1ccc(N(CCC2(O)CCN(CCc3ccc(F)cc3)CC2)C(C)=O)cc1
melting point: 121.6 to 122.1 °C

COMPOUND: CCCCOc1ccc(N(CCC2(O)CCN(Cc3ccccc3)CC2)C(C)=O)cc1
melting point: 89.7 to 90.6 °C

COMPOUND: CCCCOc1ccc(N(C)CCC2(O)CCN(Cc3ccc(N(C)C)cc3)CC2)cc1
melting point: 71.3 to 73 °C

COMPOUND: CC(C)Oc1ccc(N(C)CCC2(O)CCN(Cc3cccc(C(F)(F)F)c3)CC2)cc1
melting point: 60.8 to 61.1 °C

COMPOUND: CCCCOc1ccc(N(C)CCC2(O)CCN(Cc3ccc(C(F)(F)F)cc3)CC2)cc1
melting point: 77.4 to 78.2 °C

COMPOUND: CC(C)Oc1ccc(N(C)CCC2(O)CCN(Cc3ccc(OC(F)(F)F)cc3)CC2)cc1 [Example 89]
melting point: 84.7 to 85.1 °C

COMPOUND: CCCCOc1ccc(N(C)CCC2(O)CCN(Cc3ccc(F)cc3)CC2)cc1 (as salt: hydrochloride) [Example 177, dihydrochloride]
melting point: 209 °C (dec.)

COMPOUND: CC(C)Oc1ccc(NCCC2(O)CCN(C(c3ccccc3)c3ccccc3)CC2)cc1
melting point: 170 to 171.2 °C

COMPOUND: CC(C)Oc1ccc(N(C)CCC2(O)CCN(Cc3ccc([N+](=O)[O-])cc3)CC2)cc1
melting point: 62.5 to 63.1 °C

COMPOUND: CC(C)Oc1ccc(N(C)CCC2(O)CCN(Cc3ccc(OC(C)C)cc3F)CC2)cc1
melting point: 65.1 to 66.1 °C

COMPOUND: CC(C)Oc1ccc(N(C)CCC2(O)CCN(Cc3ccc(Br)cc3F)CC2)cc1 (as salt: hydrochloride) [Example 240, dihydrochloride]
melting point: 228.3 to 229.1 °C

COMPOUND: CCCCOc1ccc(N(C)CCC2(O)CCN(Cc3ccc(C)cc3)CC2)cc1
melting point: 73.3 to 75 °C

COMPOUND: CC(C)Oc1ccc(N(C)CCC2(O)CCN(Cc3ccc(C#N)cc3)CC2)cc1 (as salt: hydrochloride) [Example 226, dihydrochloride]
melting point: 220.8 to 222.2 °C

COMPOUND: CC(C)Oc1ccc(N(C)CCC2(O)CCN(Cc3ccc(F)cc3)CC2)cc1
melting point: 69.2 to 70 °C

COMPOUND: CC(C)Oc1ccc(N(C)CCC2(O)CCN(Cc3cccc(F)c3)CC2)cc1
melting point: 52.5 to 54.6 °C

COMPOUND: CCCCOc1ccc(N(C)CCC2(O)CCN(C3Cc4ccccc4C3)CC2)cc1
melting point: 94.4 to 94.6 °C
